Target: T1, Human Spindlin1 50-262 (human, UniProt Q9Y657 50-262)
T1 construct: also called SPIN1; not shown: GST, N-terminal, cleaved
T1 sequence (Q9Y657 50-262): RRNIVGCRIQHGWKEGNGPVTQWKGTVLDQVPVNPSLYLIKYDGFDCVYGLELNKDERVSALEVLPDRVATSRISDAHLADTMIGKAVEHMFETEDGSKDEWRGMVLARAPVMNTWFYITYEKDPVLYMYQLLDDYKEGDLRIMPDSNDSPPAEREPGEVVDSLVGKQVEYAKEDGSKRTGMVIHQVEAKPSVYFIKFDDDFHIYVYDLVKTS
Test: ITC
Details: both partners purified
Where no end group is shown, it is not given here.
// reported Kd for each item listed
Number only, in nM; omit the unit.

The cases that follow already have their Kd on record.
>>> value_reported("AARLCCQLDPARDVLCLRPV-NH2 (cysteine pairing not given here, source: synthetic peptide, bought: Scilight Biotechnology LLC) [HBx-D2-21 peptide]")
700
>>> value_reported("AARLCCQLDSARDVLLLRPF-NH2 (cysteine pairing not given here, also called FWHx; source: synthetic peptide, bought: Scilight Biotechnology LLC) [WHx2-21 peptide (woodchuck HBx)]")
2900

Proceed to the following item.
IN: Request the reported Kd associated with AARLCCQLDSSRDVLLLRPL-NH2 (cysteine pairing not given here, source: synthetic peptide, bought: Scilight Biotechnology LLC) [GSHBx2-21 peptide (ground squirrel HBx)]
OUT: 620
